Molecular target: biotinylated recombinant human CLL-1 extracellular domain protein, isoform with glutamine at amino acid position 244 (human) (UniProt Q5QGZ9)
Sequence (Q5QGZ9 65-265): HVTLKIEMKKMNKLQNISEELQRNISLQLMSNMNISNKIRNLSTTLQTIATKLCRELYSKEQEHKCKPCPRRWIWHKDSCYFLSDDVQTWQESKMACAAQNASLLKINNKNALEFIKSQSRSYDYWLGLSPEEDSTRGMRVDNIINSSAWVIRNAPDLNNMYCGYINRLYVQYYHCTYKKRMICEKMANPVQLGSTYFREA
Assay: BLItz, 1:1 model (Q244 per FIG. 12B)
Measurement Name: kon (M⁻¹ s⁻¹)
Report the value in M⁻¹ s⁻¹ with no unit label.

Memo: Anti-CLL-1 Binder Clone 2 (scFv, not shown: small tags and cut ends) scFv: QSVLTQPLSVSVALGQTARITCGGNNIGSKNVHWYQQKAGQAPVLVIQRDSNRPSGIPERFSGSNSGNTATLTISRAQAGDEADYFCQVWDSNTYVFGTGTKLTVLGGGGSGGGGSGGGGSEVQLVESGGGLVKPGGSLRLSCAASGFTFSDYYMSWIRQAPGKGLEWVSYISSSGSTIYYADSVKGRFTISRDNAKNSLYLQMNSLRDEDTAVYYCARQSAEIVGAFDHWGQGTMVTVSS , reported kon: 47000

Memo: Anti-CLL-1 Binder Clone 20 (VHH, not shown: small tags and cut ends) VHH: QVQLVQSGGGLVQPGGSLRLSCAASDFSFSYYEMSWVRQAPGKGLEWVSTISGSGDSTYYADSVKGRFTISRDNTKNTLYLQMNTLRAEDTATYYCMTDGETWGTHRYTVYWGQGALVTVSS , reported kon: 110000

Source of measurements: patent US20250333515A1
